The values you see were collected from ChEMBL document CHEMBL4834464.

protocol: Half life in male Wistar Han rat at 1 mg/kg, iv and 3 mg/kg, po measured up to 7 hrs by LC-MS/MS analysis
Format: ADME, organism-based
measurement_conditions: in vivo
Measured half-life of individual entries
Give a bare numeral; the unit h is implied.

Reference set (5 entries):
INSERT INTO measurements (compound_string, measurement_kind, result) VALUES
  ('CNC(=O)c1cc(C(=O)N[C@H]2CC[C@H](O)CC2)c([C@@H](C)c2cccc(Cl)c2)o1', 'half-life', 0.9),
  ('CNC(=O)c1cc(C(=O)N[C@H]2CC[C@H](OC)CC2)n([C@@H](C)c2ccccc2)n1', 'half-life', 1),
  ('CNC(=O)c1cc(C(=O)N[C@H]2CC[C@H](O)CC2)c([C@@H](C)c2ccccc2)o1', 'half-life', 1.3),
  ('CNC(=O)c1cc(C(=O)N[C@H]2[C@@H]3C[C@@H](O)C[C@@H]32)n([C@@H](C)c2cccc(Cl)c2)n1', 'half-life', 2.9),
  ('CNC(=O)c1cc(C(=O)N[C@H]2[C@@H]3COC[C@@H]32)c([C@@H](C)c2ccccc2)o1', 'half-life', 0.7);

Now look at this entry.
Query string: Please indicate half-life recorded for CNC(=O)c1cc(C(=O)N[C@H]2[C@@H]3C[C@@H](O)C[C@@H]32)c([C@@H](C)c2ccccc2)o1
Result string: 1.2
